Record form. Attribute: binding signal. Fill in for each entry.
# assay_target: AGO2 WT (phosphosite mutant background) (Homo sapiens, UniProt Q9UKV8 1-859, S387D;S824A;S828D;S831D;S834A)
# Sequence (Q9UKV8 whole entry S387D/S824A/S828D/S831D/S834A): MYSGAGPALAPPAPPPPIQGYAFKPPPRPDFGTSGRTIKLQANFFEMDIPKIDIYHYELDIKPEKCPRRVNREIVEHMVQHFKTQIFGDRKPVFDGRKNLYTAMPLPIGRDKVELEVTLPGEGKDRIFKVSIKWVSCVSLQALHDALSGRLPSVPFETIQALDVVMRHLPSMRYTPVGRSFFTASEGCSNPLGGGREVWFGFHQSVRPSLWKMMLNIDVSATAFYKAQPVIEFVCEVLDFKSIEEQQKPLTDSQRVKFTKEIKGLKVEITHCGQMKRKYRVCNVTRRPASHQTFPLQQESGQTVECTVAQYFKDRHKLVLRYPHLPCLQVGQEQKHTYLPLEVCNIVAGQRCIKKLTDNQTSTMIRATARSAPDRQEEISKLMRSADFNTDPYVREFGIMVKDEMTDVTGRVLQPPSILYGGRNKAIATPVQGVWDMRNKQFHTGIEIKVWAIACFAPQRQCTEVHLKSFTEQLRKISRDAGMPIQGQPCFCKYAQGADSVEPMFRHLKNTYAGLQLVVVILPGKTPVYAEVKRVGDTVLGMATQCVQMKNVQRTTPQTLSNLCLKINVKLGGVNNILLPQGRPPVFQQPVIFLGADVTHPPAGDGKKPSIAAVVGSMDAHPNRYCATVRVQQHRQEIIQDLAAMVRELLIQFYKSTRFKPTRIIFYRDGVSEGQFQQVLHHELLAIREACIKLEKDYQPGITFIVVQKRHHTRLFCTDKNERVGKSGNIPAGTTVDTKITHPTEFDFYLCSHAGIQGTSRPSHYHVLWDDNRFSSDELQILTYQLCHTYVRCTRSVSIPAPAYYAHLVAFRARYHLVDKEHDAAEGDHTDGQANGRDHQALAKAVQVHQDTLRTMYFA
# experimental_protocol: RNA Bind-n-Seq (nitrocellulose filter binding and sequencing); miR-122 guide loaded in AGO2; 60 min incubation; 30 mM Tris pH 8.0, 100 mM potassium acetate, 2 mM magnesium acetate, 0.5 mM TCEP, 0.005% NP-40, 0.01 mg/ml yeast tRNA; 3 nM AGO2-miR-122, 100 nM RNA library; 60; high values mean tight binding
# experimental_setup: protein: recombinant; tags: His6 (N-terminal, pFastBac HTA)

Field request: binding signal | item: GCACTCCA (ssRNA, constant regions annealed to DNA blockers; guide miR-122 5' phosphate) RNA 1: GAGUUCUACAGUCCGACGAUCCCAACGCACUCCACACCUGGAAUUCUCGGGUGCCAA RNA 2: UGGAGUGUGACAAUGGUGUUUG DNA 1: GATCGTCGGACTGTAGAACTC DNA 2: TTGGCACCCGAGAATTCCA
117 fold enrichment over input

Next up: ACACTTTA (ssRNA, constant regions annealed to DNA blockers; guide miR-122 5' phosphate) RNA 1: GAGUUCUACAGUCCGACGAUCCCAACACACUUUACACCUGGAAUUCUCGGGUGCCAA RNA 2: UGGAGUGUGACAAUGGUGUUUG DNA 1: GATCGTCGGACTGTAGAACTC DNA 2: TTGGCACCCGAGAATTCCA
0.133 fold enrichment over input

Next up: GTGCTTCG (ssRNA, constant regions annealed to DNA blockers; guide miR-122 5' phosphate) RNA 1: GAGUUCUACAGUCCGACGAUCCCAACGUGCUUCGCACCUGGAAUUCUCGGGUGCCAA RNA 2: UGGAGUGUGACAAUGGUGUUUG DNA 1: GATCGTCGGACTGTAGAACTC DNA 2: TTGGCACCCGAGAATTCCA
0.127 fold enrichment over input

Continuing:
Field request: binding signal | item: ACATCCCA (ssRNA, constant regions annealed to DNA blockers; guide miR-122 5' phosphate) RNA 1: GAGUUCUACAGUCCGACGAUCCCAACACAUCCCACACCUGGAAUUCUCGGGUGCCAA RNA 2: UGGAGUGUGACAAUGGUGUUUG DNA 1: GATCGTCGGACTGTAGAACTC DNA 2: TTGGCACCCGAGAATTCCA
0.154 fold enrichment over input

Where these numbers come from: paper PMC12529666
